# measured.on: HLA-A*0206 (human)
# run.description: competition with 125I-labelled standard peptide for purified HLA, gel filtration
# condition.context: remark: other sources report otherwise
measured.quantity: IC50

- RMMNDQLMFL (modifications not checked) [peptide 1126.06 (PSM.662)]: 40 nM
